assay-protocol: log P determination by HPLC on reverse-phase column (C 18), EEC-Directive 79/831 Annex V.A8
Assay type: physicochemical
stated-conditions: compounds of formula (I-2-a); generally isomer mixtures; those marked 1) were separated into cis and trans diastereomers
measured-attribute: logP

> print(dat)
                                    molecule  measured.attribute  test.result
 1  COC1CCCC2(C1)OC(=O)C(c1ccccc1C)=C2O (stereo not shown)                logP         1.81
 2  COC1CCCC2(C1)OC(=O)C(c1cc(-c3cccc(Cl)c3)ccc1C)=C2O (stereo not shown)                logP         3.16
 3  COC1CCCC2(C1)OC(=O)C(c1ccc(Cl)cc1C)=C2O (single isomer, unassigned) [Example I-2-a-8]                logP         2.11
 4  COC1CCCC2(C1)OC(=O)C(c1cc(C)ccc1C)=C2O (mixture of isomers)                logP         2.15
 5  COC1CCCC2(C1)OC(=O)C(c1c(C)cc(C)c(C)c1C)=C2O (stereo not shown)                logP         2.50
 6  COC1CCCC2(C1)OC(=O)C(c1c(Br)cc(C)cc1Br)=C2O (stereo not shown)                logP         2.51
 7  COC1CCCC2(C1)OC(=O)C(c1ccc(Cl)cc1Cl)=C2O (mixture of isomers)                logP         2.21
 8  CCc1cc(Br)cc(C)c1C1=C(O)C2(CCCC(OC)C2)OC1=O (stereo not shown)                logP         2.74
 9  COC1CCCC2(C1)OC(=O)C(c1cc(Br)ccc1C)=C2O (stereo not shown)                logP         2.30
10  COc1ccc(C2=C(O)C3(CCCC(OC)C3)OC2=O)c(C)c1 (mixture of isomers)                logP         2.21
11  COC1CCCC2(C1)OC(=O)C(c1cc(C)c(Br)cc1Br)=C2O (stereo not shown)                logP         2.58
12  COC1CCCC2(C1)OC(=O)C(c1cc(C)c(C)cc1C)=C2O (stereo not shown)                logP         2.21
13  COC1CCCC2(C1)OC(=O)C(c1c(C)cc(C)c(-c3ccc(Cl)cc3)c1C)=C2O (mixture of isomers)                logP         3.60
14  COC1CCCC2(C1)OC(=O)C(c1cc(Cl)c(C)cc1Cl)=C2O (mixture of isomers)                logP         2.47
15  COC1CCCC2(C1)OC(=O)C(c1ccc(C)cc1Cl)=C2O (stereo not shown)                logP         2.13
16  COC1CCCC2(C1)OC(=O)C(c1cc(C)ccc1Br)=C2O (mixture of isomers)                logP         2.16
17  COC1CCCC2(C1)OC(=O)C(c1c(C)cc(C)cc1Br)=C2O (stereo not shown)                logP         2.36
18  CCCCOC1CCCC2(C1)OC(=O)C(c1cc(C)ccc1C)=C2O (stereo not shown)                logP         3.36
19  CCc1cc(Cl)c(C2=C(O)C3(CCCC(OC)C3)OC2=O)c(Br)c1 (stereo not shown)                logP         2.62
20  COC1CCCC2(C1)OC(=O)C(c1c(C)cc(C)cc1Cl)=C2O (stereo not shown)                logP         2.31
21  COC1CCCC2(C1)OC(=O)C(c1ccc(Cl)cc1C(F)(F)F)=C2O (stereo not shown)                logP         2.37
